# Tested on: Huh7
# experiment: MTT antiproliferative assay, Huh7
# Type: cell-based
# condition.set: Homo sapiens, Huh-7, 72 h, mean ± SD of three experiments, read-out: In vitro antiproliferative activity (IC50) Huh7
pIC50: −log10 of the molar value.
Attribute: pIC50

compound: COc1ccc2c(c1)[nH]c1c(C)nccc12 [Harmine, harmine, reference compound]
system: Huh7
pIC50: 4.38

compound: CN(C)c1ccc(-c2nc(C(=O)NCc3ccc(/C=C/C(=O)NO)cc3)cc3c2[nH]c2ccccc23)cc1
system: Huh7
pIC50: 5.54

* * *

# system: recombinant human HDAC6 (Homo sapiens, UniProt Q9UBN7)
# Sequence (Q9UBN7 1-1215): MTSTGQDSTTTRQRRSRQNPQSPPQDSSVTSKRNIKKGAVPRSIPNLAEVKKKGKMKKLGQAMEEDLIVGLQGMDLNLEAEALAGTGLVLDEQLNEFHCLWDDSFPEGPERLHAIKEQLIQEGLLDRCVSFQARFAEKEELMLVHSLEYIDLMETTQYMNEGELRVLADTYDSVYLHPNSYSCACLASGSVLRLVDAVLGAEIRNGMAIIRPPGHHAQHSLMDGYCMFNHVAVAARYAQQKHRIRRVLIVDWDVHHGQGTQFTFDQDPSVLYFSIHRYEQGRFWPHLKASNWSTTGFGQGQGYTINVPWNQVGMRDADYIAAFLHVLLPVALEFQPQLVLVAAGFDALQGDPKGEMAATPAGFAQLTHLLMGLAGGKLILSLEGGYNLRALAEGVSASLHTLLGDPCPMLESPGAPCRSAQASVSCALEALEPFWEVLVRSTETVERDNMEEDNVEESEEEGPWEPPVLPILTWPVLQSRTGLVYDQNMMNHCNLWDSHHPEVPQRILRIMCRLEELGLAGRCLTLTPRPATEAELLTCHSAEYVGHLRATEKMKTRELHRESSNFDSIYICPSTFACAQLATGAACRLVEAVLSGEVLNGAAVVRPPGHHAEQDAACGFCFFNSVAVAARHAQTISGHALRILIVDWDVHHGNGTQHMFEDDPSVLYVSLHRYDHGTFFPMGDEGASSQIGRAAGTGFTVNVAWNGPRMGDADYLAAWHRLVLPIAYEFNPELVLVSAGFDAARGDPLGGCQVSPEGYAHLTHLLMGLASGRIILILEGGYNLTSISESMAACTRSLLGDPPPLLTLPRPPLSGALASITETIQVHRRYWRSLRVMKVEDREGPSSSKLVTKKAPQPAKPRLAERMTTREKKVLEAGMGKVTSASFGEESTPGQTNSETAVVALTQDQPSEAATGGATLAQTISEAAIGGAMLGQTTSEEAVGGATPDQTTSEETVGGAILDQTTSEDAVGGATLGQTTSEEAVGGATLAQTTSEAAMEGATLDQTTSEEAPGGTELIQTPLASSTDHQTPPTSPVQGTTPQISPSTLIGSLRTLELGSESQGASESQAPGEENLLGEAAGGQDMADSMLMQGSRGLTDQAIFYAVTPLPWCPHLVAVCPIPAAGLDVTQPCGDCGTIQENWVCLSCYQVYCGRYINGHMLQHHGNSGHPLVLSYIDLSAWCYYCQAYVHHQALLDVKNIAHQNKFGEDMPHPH
# experiment: HDAC fluorimetric assay, HDAC6
# condition.set: mean ± SD of three experiments

chemical.string: CN(C)c1ccc(-c2nc(C(=O)NCc3ccc(/C=C/C(=O)NO)cc3)cc3c2[nH]c2ccccc23)cc1
system: recombinant human HDAC6 (Homo sapiens, UniProt Q9UBN7)
IC50: 7.6 nM
